- Test system: shunt pathway
- EXPERIMENT NOTES: Test Code 036 (C-Shunt inhibitor), lysis of human erythrocytes in autologous serum via shunt pathway activated by cobra venom factor
- Format: biochemical
- RECORDED CONDITIONS: activity in wells, serial dilution assay; higher well number indicates higher activity
VALUE TYPE: C-Shunt Inhibition 036 Wells

Ask: Name the reported C-Shunt Inhibition 036 Wells value associated with the compound O=C(OC[C@H]1O[C@H](OC[C@H]2O[C@H](OC[C@H]3O[C@H](O[C@]4(COS(=O)(=O)O)O[C@H](COC(=O)C56CC7CC(CC(C7)C5)C6)[C@@H](OS(=O)(=O)O)[C@@H]4OS(=O)(=O)O)[C@H](OS(=O)(=O)O)[C@@H](OS(=O)(=O)O)[C@@H]3OS(=O)(=O)O)[C@H](OS(=O)(=O)O)[C@@H](OS(=O)(=O)O)[C@H]2OS(=O)(=O)O)[C@H](OS(=O)(=O)O)[C@@H](OS(=O)(=O)O)[C@H]1OS(=O)(=O)O)C12CC3CC(CC(C3)C1)C2 [6,6'"-Di-1-adamantanecarboxylate-O--α-D-galactopyranosyl(1→6]
Reply: +3 Wells
